# target_or_system: ROCK1 (Homo sapiens (Human), UniProt Q13464);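 note: Read-out is separation of phosphorylated from unphosphorylated peptide, with kinase activity inhibition computed at every concentration of a dose-response series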
# Sequence (Q13464 whole entry, species assumed): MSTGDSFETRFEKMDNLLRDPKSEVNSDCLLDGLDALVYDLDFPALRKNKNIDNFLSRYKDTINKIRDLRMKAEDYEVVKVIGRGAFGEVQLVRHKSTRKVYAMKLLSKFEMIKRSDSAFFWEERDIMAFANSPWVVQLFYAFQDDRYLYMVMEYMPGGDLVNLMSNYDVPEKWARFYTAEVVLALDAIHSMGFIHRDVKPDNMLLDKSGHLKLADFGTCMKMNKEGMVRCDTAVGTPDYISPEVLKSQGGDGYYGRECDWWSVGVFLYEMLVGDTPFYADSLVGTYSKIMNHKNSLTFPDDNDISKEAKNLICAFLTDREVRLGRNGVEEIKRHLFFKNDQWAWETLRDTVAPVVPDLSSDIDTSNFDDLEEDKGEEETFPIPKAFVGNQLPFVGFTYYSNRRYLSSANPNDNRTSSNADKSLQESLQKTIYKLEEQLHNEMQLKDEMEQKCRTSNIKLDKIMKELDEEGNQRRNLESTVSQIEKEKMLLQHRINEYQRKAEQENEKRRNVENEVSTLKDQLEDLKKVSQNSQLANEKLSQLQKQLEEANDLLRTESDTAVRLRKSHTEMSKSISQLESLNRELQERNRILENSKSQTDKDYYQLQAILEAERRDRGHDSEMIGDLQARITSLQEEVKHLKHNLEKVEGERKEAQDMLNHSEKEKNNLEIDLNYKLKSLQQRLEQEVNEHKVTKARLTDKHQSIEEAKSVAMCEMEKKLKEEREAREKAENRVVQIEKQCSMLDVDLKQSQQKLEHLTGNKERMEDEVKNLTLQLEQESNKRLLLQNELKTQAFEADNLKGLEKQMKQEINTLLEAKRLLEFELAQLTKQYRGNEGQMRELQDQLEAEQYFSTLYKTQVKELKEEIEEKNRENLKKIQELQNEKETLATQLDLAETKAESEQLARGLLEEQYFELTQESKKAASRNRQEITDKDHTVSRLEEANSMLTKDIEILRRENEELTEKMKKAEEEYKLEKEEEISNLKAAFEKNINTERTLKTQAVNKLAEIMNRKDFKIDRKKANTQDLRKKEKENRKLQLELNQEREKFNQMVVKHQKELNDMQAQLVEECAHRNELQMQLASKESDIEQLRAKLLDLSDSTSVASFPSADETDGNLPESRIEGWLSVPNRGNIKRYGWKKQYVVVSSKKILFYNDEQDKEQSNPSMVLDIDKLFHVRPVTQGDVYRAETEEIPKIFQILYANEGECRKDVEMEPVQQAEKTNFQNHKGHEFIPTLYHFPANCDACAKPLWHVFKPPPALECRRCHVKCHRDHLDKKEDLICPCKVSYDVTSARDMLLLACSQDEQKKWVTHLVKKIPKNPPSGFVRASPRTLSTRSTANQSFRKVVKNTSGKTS
pIC50: −log10 of the molar value.
# if value of pIC50 reaches 7, tag condition met; if it stays below, tag condition not met

[
  {
    "molecule": "CN(C)CCOc1cc(C(=O)NCc2ccccc2Cl)ccc1-c1cn[nH]c1",
    "group": "condition not met"
  },
  {
    "molecule": "COc1cc(C(=O)N[C@H](CNS(=O)(=O)C2CC2)c2ccccc2)ccc1-c1cn[nH]c1",
    "group": "condition met"
  }
]

Determine whether measured pIC50 meets or exceeds 7 for COc1cc(C(=O)NC(C)c2cccc(O)n2)ccc1-c1cn[nH]c1 (centres unmarked)
condition met
